- System: NCI-H1435 (Non-Small Cell Lung Carcinoma)
- measurement-protocol: Bliss excess, mean over the matrix (fraction); higher = more synergy;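 also: after 72 h of two-drug dosing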
// values below are reported Bliss excess
Give a plain numeric answer without units written out.

Study these solved cases before continuing.
molecule | Bliss excess
C[C@@H](c1ccc2nccn2c1)n1nnc2ncc(-c3cnn(C)c3)nc21 [Savolitinib] + Cc1c2c(nn1C)CSCc1cc(n(C)n1)CSc1cc(c3ccccc3c1)OCCCc1c(C(=O)O)n(C)c3c-2c(Cl)ccc13 [AZD5991] (first compound max 1 µM, 7x7, partner max 1 µM) | -0.0263
CN(CCO)CC[C@H](CSc1ccccc1)Nc1ccc(S(=O)(=O)NC(=O)c2ccc(N3CCC([C@@H](O)c4ccccc4-c4ccc(Cl)cc4)CC3)cc2)cc1S(=O)(=O)C(F)(F)F [AZD4320] + C=CCn1c(=O)c2cnc(Nc3ccc(N4CCN(C)CC4)cc3)nc2n1-c1cccc(C(C)(C)O)n1 [AZD1775] (first compound max 1 µM, partner max 1 µM) | 0.0482
CC(=O)c1c(C)c2cnc(Nc3ccc(N4CCNCC4)cn3)nc2n(C2CCCC2)c1=O [Palbociclib] + Cn1cnc2c(F)c(Nc3ccc(Br)cc3Cl)c(C(=O)NOCCO)cc21 [Selumetinib] (first compound max 10 µM, 7x7, partner max 10 µM) | -0.0105

The reported Bliss excess of the molecule CN(CCO)CC[C@H](CSc1ccccc1)Nc1ccc(S(=O)(=O)NC(=O)c2ccc(N3CCC([C@@H](O)c4ccccc4-c4ccc(Cl)cc4)CC3)cc2)cc1S(=O)(=O)C(F)(F)F [AZD4320] + C[C@@H]1COCCN1C2=NC(=NC(=C2)C3(CC3)[S@](=N)(=O)C)C4=C5C=CNC5=NC=C4 [AZD6738] (first compound max 1 µM, 7x7, partner max 10 µM) was 0.0366

The reported Bliss excess of the molecule C[C@@H](Oc1cc(-c2cnn(C3CCNCC3)c2)cnc1N)c1c(Cl)ccc(F)c1Cl [Crizotinib] + Cn1cnc2c(F)c(Nc3ccc(Br)cc3Cl)c(C(=O)NOCCO)cc21 [Selumetinib] (first compound max 10 µM, 7x7, partner max 10 µM) was -0.0088

The reported Bliss excess of the molecule C[C@@H](c1ccc2nccn2c1)n1nnc2ncc(-c3cnn(C)c3)nc21 [Savolitinib] + CC1(C)CCC(CN2CCN(c3ccc(C(=O)NS(=O)(=O)c4ccc(NCC5CCOCC5)c([N+](=O)[O-])c4)c(Oc4cnc5[nH]ccc5c4)c3)CC2)=C(c2ccc(Cl)cc2)C1 [Venetoclax] (first compound max 1 µM, 7x7, partner max 1 µM) was -0.0034

====

- Test system: NTERA-2-cl-D1 (Other Solid Carcinomas)
- measurement-protocol: Bliss excess, mean over the matrix (fraction); higher = more synergy
// values below are reported Bliss excess
Give a plain numeric answer without units written out.

# Cc1cc2ncnn2cc1Nc1ncc2c(n1)n(C1CCOCC1)c(=O)n2C [AZD7648] + CCN(CCO)CCCOc1ccc2c(Nc3cc(CC(=O)Nc4cccc(F)c4)[nH]n3)ncnc2c1 [AZD2811] (first compound max 10 µM, 7x7, partner max 1 µM) with NTERA-2-cl-D1 (Other Solid Carcinomas): Bliss excess is 0.012

# Cc1nc(Nc2ncc(C(=O)Nc3c(C)cccc3Cl)s2)cc(N2CCN(CCO)CC2)n1 [Dasatinib] + CC(=O)Nc1cccc(-n2c(=O)n(C3CC3)c(=O)c3c(Nc4ccc(I)cc4F)n(C)c(=O)c(C)c32)c1 [Trametinib] (first compound max 2 µM, 7x7, partner max 1 µM) with NTERA-2-cl-D1 (Other Solid Carcinomas): Bliss excess is 0.0638

# CN(CCO)CC[C@H](CSc1ccccc1)Nc1ccc(S(=O)(=O)NC(=O)c2ccc(N3CCC([C@@H](O)c4ccccc4-c4ccc(Cl)cc4)CC3)cc2)cc1S(=O)(=O)C(F)(F)F [AZD4320] + CC(=O)O[C@H]1C(=O)[C@@]2(C)[C@H]([C@H](OC(=O)c3ccccc3)[C@]3(O)C[C@H](OC(=O)[C@H](O)[C@@H](NC(=O)c4ccccc4)c4ccccc4)C(C)=C1C3(C)C)[C@]1(OC(C)=O)CO[C@@H]1C[C@@H]2O [Paclitaxel] (first compound max 1 µM, 7x7, partner max 3 µM) with NTERA-2-cl-D1 (Other Solid Carcinomas): Bliss excess is 0.0025
